# SYSTEM UNDER TEST: T1, B-cat-Halo (UniProt P35222 1-781)
# T1 sequence (looked up): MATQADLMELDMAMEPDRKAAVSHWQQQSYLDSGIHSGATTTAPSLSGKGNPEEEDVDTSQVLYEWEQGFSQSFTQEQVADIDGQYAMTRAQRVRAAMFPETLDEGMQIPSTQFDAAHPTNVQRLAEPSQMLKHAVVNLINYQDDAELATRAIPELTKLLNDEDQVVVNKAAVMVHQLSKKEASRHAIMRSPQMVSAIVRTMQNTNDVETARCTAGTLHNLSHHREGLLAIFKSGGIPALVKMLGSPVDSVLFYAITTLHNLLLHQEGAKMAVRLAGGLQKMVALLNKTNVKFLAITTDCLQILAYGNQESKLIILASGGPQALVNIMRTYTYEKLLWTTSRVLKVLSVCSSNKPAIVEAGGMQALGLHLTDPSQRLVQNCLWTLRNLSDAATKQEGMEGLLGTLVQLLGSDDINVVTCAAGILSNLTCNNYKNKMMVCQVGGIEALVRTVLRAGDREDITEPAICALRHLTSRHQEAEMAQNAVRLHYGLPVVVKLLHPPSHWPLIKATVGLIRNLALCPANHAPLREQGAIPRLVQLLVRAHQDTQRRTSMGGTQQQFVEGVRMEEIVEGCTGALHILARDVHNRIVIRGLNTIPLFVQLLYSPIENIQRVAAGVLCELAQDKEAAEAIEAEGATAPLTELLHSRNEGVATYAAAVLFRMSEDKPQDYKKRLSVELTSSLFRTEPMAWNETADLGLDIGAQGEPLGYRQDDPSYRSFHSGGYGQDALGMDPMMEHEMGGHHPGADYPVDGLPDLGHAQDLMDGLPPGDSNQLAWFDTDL
# TEST NAME: cell-based or functional assay
Starred links: 1 amine or outer side, 2 acyl side, 3 side chain; linkers in the order of their positions; H or OH if unused. Positions of bridges follow the written chain, without caps; N, C: chain ends. Non-standard residues stand in square brackets, D forms with d. Primed or numbered codes have the meaning given here. PyrS2″ = (S)-3-amino-1-((pent-4-en-1-yloxy)carbonyl)pyrrolidine-3-carboxylic acid (stapling residue), C=CCCCOC(=O)N1CC[C@@](N[*:1])(C(=O)[*:2])C1; TfeGA = (S)-2-amino-3-((carboxymethyl)(2,2,2-trifluoroethyl)amino)propanoic acid, O=C([C@H](CN(CC(=O)[*:3])CC(F)(F)F)N[*:1])[*:2]; B5(3) = 2,2-bis(4-pentenyl)glycine (stitching residue), C=CCCCC(CCCC=C)(N[*:1])C(=O)[*:2]; Phe(2-Cl) = N[C@@H](Cc1ccccc1Cl)C(=O)O; Bta = N[C@@H](Cc1csc2ccccc12)C(=O)O; αAllylPro = C=CC[C@@]1(C(=O)O)CCCN1; tBuAla = CC(C)(C)C[C@H](N)C(=O)O; S8 = C=CCCCCCC[C@](C)(N)C(=O)O; hSer = N[C@@H](CCO)C(=O)O
Entries annotated with measured NanoBRET Abs IC50
Use µM as the unit, but write only the number.

// known answers, use as guide
Any idea what NanoBRET Abs IC50 was measured for Ac-[αAllylPro]D[tBuAla][B5(3)]D[TfeGA]AAF[hSer][PyrS2″][Phe(2-Cl)][Bta][hSer]-NH2 (staple 1-4, 4-11) [I-993] ? 4.9

Any idea what NanoBRET Abs IC50 was measured for Ac-[αAllylPro]D[tBuAla][B5(3)]D[TfeGA]AAFF[PyrS2″][Phe(2-Cl)][Bta]S-NH2 (staple 1-4, 4-11) [I-990] ? 8.8

Any idea what NanoBRET Abs IC50 was measured for Ac-[αAllylPro]D[tBuAla][B5(3)]D[TfeGA]AAFF[PyrS2″]F[Bta]Q-NH2 (staple 1-4, 4-11) [I-988] ? 13.9

More entries:
Any idea what NanoBRET Abs IC50 was measured for Ac-[αAllylPro]D[tBuAla][B5(3)]D[TfeGA]AAF[hSer][S8][Phe(2-Cl)][Bta]Q-NH2 (staple 1-4, 4-11) [I-996] ? 11.3
